systemName: recombinant eIF4E (Homo sapiens (Human), UniProt P06730)
Sequence (P06730 whole entry): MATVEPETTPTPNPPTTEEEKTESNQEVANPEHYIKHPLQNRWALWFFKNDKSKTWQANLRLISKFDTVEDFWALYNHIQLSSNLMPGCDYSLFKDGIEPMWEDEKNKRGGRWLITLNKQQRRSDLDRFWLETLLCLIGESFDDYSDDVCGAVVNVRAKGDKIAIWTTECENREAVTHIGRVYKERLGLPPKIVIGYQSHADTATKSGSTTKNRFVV
methodDescription: Fluorescence polarization competition assay for eIF4E binding potency
runParameters: fluorescence polarization competition, 75 nM recombinant eIF4E, 20 nM EDA-m7GDP-ATTO-550; IC50 class; read-out: elF4E FP
resultType: IC50

Consider the reported IC50 for these molecules:
smilesinput=Cc1cc(-c2cc(Cl)ccc2OCCn2c(C)nc3cc(C(F)(F)F)c(CC4CN(C)C4)c(C#N)c3c2=O)c2scc(C(=O)O)c2n1 resulttype=IC50 assayvalue="< 0.05 µM"
smilesinput=Cc1cc(-c2cc(Cl)ccc2OCCn2c(C)nc3cc(C(F)(F)F)c(N4CCNCC4)c(C#N)c3c2=O)c2sc(C)c(C(=O)O)c2n1 resulttype=IC50 assayvalue="< 0.05 µM"

Q. Quote recombinant eIF4E (Homo sapiens (Human), UniProt P06730) IC50 for entry "O=C(O)c1cccc(-c2cc(Cl)ccc2OCCn2ccc3ccncc3c2=O)c1" .
A. > 1 µM

Q. State the measured IC50 (recombinant eIF4E (Homo sapiens (Human), UniProt P06730)) of "COC(=O)c1csc2c(-c3cc(Cl)ccc3C#CCn3c(C)nc4cnc(N5CCN(CCOC(F)(F)F)CC5)c(C#N)c4c3=O)ccnc12"
A. 0.05 to 1 µM

Q. Look up and report measured IC50 (recombinant eIF4E (Homo sapiens (Human), UniProt P06730)) for the following molecule: "Cc1cc(-c2cc(Cl)ccc2OCCn2c(C)nc3cc(C(F)(F)F)c(-c4ccccc4CO)nc3c2=O)c2scc(C(=O)O)c2n1"
A. < 0.05 µM

Q. Please look at "Cc1cc(-c2cc(Cl)ccc2OCCn2c(C)nc3cc(C(F)(F)F)c(N4CCC(C(F)(F)F)CC4)nc3c2=O)c2scc(C(=O)O)c2n1" and tell me its recorded IC50 on recombinant eIF4E (Homo sapiens (Human), UniProt P06730).
A. 0.05 to 1 µM

* * *

systemName: recombinant eIF4E (Homo sapiens (Human), UniProt P06730)
methodDescription: Fluorescence polarization competition assay for eIF4E binding potency
runParameters: inhibition of eIF4E/EDA-m7GDP-ATTO-550 binding; calculated IC50 values, Table 4B; read-out: IC50
Method: Compounds were screened for eIF4E binding potency using a fluorescence polarization competition assay. All binding reactions were performed in fluorescence polarization buffer (FPB) containing 20 mM Tris pH 7.5, 100 mM NaCl, 1 mM DTT, and 0.02% Tween-20. Final binding reactions contained 75 nM recombinant eIF4E (Beryllium, custom order), 20 nM EDA-m^7GDP-ATTO-550 (Jena Bioscience, NU-827-550) and varying concentrations of the inhibitory compound of interest. […]
resultType: IC50 (µM)

Reference set, count: 4
molecule=Cc1nc2cnc(N(C)C3CCN([C@H]4C[C@@H](OC(F)(F)F)C4)CC3)c(C#N)c2c(=O)n1CC#Cc1ccc(Cl)cc1-c1ccnc2c(C(=O)NS(=O)(=O)c3ccncc3)csc12 assayvalue=0.0475
molecule="Cc1nc2cnc(N3CCN(C)C(C(F)F)C3)c(C#N)c2c(=O)n1CCOc1ccc(Cl)cc1-c1ccnc2c(C(=O)O)csc12 (stereo not drawn)" assayvalue=0.0265
molecule=Cc1nc2cc(C(F)(F)F)c(N3CCC4(CC3)CN(CC(F)F)C4)c(C#N)c2c(=O)n1CCOc1ccc(Cl)cc1-c1ccnc2c(C(=O)NS(C)(=O)=O)csc12 assayvalue=0.0229
molecule="Cc1nc2cnc(N3CC4CC3CN4C)c(C#N)c2c(=O)n1CCOc1ccc(Cl)cc1-c1ccnc2c(C(=O)O)csc12 (stereo not drawn)" assayvalue=0.0232

A. Cc1nc2cc(Cl)c(C(F)F)c(C#N)c2c(=O)n1CCOc1ccc(Cl)cc1-c1ccnc2c(C(=O)O)csc12
B. O=C(O)c1cccc(-c2cc(Cl)ccc2OCCn2c(C(F)F)nc3cncc(Br)c3c2=O)c1
Q. Smaller IC50 value? Options are A and B # reply format: chosen label
A. A
